# Tested on: MDA-MB-231
# experimentalDetails: Anti-proliferation IC50, MDA-MB-231
# Assay type: cell-based
# experimentalContext: Homo sapiens, Table 2, compounds of formula II, read-out: Anti-proliferation IC50 MDA-MB-231
propertyName: IC50 (µM)

| molecule | IC50, µM |
| --- | --- |
| CC[C@@H]1OC(=O)[C@@H](C)[C@H](O[C@H]2C[C@@](C)(OC)[C@@H](O)[C@H](C)O2)[C@@H](C)[C@H](O[C@@H]2O[C@H](C)C[C@H](N(C)C)[C@H]2OC(=O)CCCC[C@H]2CCSS2)C(C)(O)C[C@H](C)CN(C)[C@@H](C)[C@H](O)[C@@]1(C)O (some centres unmarked) | 45 |
| CC[C@@H]1OC(=O)[C@@H](C)[C@H](O[C@H]2C[C@@](C)(OC)[C@@H](O)[C@H](C)O2)[C@@H](C)[C@H](O[C@H]2O[C@@H](C)C[C@@H](N(C)Cc3ccc(-c4cn(CCNC(=O)CCCC[C@H]5CCSS5)nn4)cc3)[C@@H]2O)C(C)(O)C[C@H](C)CN(C)[C@@H](C)[C@H](O)[C@@]1(C)O (some centres unmarked) | 11.8 |
| CC[C@@H]1OC(=O)[C@@H](C)[C@H](OC2C[C@@](C)(OC)[C@@H](O)[C@H](C)O2)[C@@H](C)[C@H](O[C@H]2O[C@@H](C)C[C@@H](N(C)Cc3ccc(-c4cn(CCCNC(=O)CCCC[C@H]5CCSS5)nn4)cc3)[C@@H]2O)C(C)(O)C[C@H](C)CN(C)[C@@H](C)[C@H](O)[C@@]1(C)O (some centres unmarked) | 21.3 |
| CC[C@@H]1OC(=O)[C@@H](C)[C@H](O[C@H]2C[C@@](C)(OC)[C@@H](O)[C@H](C)O2)[C@@H](C)[C@H](O[C@H]2O[C@@H](C)C[C@@H](N(C)C)[C@@H]2OC(=O)/C=C/C(=O)OC)C(C)(O)C[C@H](C)CN(C)[C@@H](C)[C@H](O)[C@@]1(C)O (some centres unmarked) | 118 |
| CCCCOC(=O)/C=C/C(=O)O[C@@H]1[C@@H](O[C@H]2[C@H](C)[C@@H](O[C@H]3C[C@@](C)(OC)[C@@H](O)[C@H](C)O3)[C@H](C)C(=O)O[C@@H](CC)[C@](C)(O)[C@@H](O)[C@H](C)N(C)C[C@@H](C)CC2(C)O)O[C@@H](C)C[C@H]1N(C)C (some centres unmarked) | 29.6 |
| CCCCOC(=O)/C=C/C(=O)N(C)[C@@H]1C[C@H](C)O[C@H](O[C@H]2[C@H](C)[C@@H](O[C@H]3C[C@@](C)(OC)[C@@H](O)[C@H](C)O3)[C@H](C)C(=O)O[C@@H](CC)[C@](C)(O)[C@@H](O)[C@H](C)N(C)C[C@@H](C)CC2(C)O)[C@H]1O (some centres unmarked) | 34.8 |

(P) CC[C@H]1OC(=O)[C@H](C)[C@@H](O[C@H]2C[C@@](C)(OC)[C@@H](O)[C@H](C)O2)[C@H](C)[C@@H](O[C@@H]2O[C@H](C)C[C@H](N(C)C(=O)CCCC[C@H]3CCSS3)[C@H]2O)[C@](C)(O)C[C@@H](C)CN(C)[C@H](C)[C@@H](O)[C@]1(C)O
(Q) CC[C@@H]1OC(=O)[C@@H](C)[C@H](O)[C@@H](C)[C@H](O[C@@H]2O[C@H](C)C[C@H](N(C)C)[C@H]2OC(=O)CCCC[C@H]2CCSS2)C(C)(O)C[C@H](C)CN(C)[C@@H](C)[C@H](O)[C@@]1(C)O (some centres unmarked)
Request: Please indicate which item has the smaller measured IC50: P versus Q // output: label of the selected item
Response: P

###

# Tested on: A549
# experimentalDetails: Anti-proliferation IC50, A549
# Assay type: cell-based
# experimentalContext: Homo sapiens, Table 2, compounds of formula II, read-out: Anti-proliferation IC50 A549
propertyName: pIC50
Just the number, please; pIC50 means minus log10 of the concentration in mol/L.

As a guide, the following entries are already answered.
| compound | testedOn | pIC50 |
| --- | --- | --- |
| CC[C@H]1OC(=O)[C@H](C)[C@@H](O[C@H]2C[C@@](C)(OC)[C@@H](O)[C@H](C)O2)[C@H](C)[C@@H](O[C@@H]2O[C@H](C)C[C@H](N(C)Cc3cn(CCc4ccc(-n5cc(C)ccc5=O)cc4)nn3)[C@H]2O)[C@](C)(O)C[C@@H](C)CN(C)[C@H](C)[C@@H](O)[C@]1(C)O [Compound 13b] | A549 | 3.84 |
| CC[C@H]1OC(=O)[C@H](C)[C@@H](O[C@H]2C[C@@](C)(OC)[C@@H](O)[C@H](C)O2)[C@H](C)[C@@H](O[C@@H]2O[C@H](C)C[C@H](N(C)Cc3cn(Cc4ccc(-n5cc(C)ccc5=O)cc4)nn3)[C@H]2O)[C@](C)(O)C[C@@H](C)CN(C)[C@H](C)[C@@H](O)[C@]1(C)O [Compound 11b] | A549 | 3.58 |

Moving on to the next compound.
Query CCCCOC(=O)/C=C/C(=O)N(C)[C@@H]1C[C@H](C)O[C@H](O[C@H]2[C@H](C)[C@@H](O[C@H]3C[C@@](C)(OC)[C@@H](O)[C@H](C)O3)[C@H](C)C(=O)O[C@@H](CC)[C@](C)(O)[C@@H](O)[C@H](C)N(C)C[C@@H](C)CC2(C)O)[C@H]1O (stereo partly drawn) on A549; pIC50 returned: 3.95

###

Recorded measurements of IC50, one per entry
# System: Hep-G2
# experimentalDetails: Anti-proliferation IC50, Hep-G2
# Assay type: cell-based
# experimentalContext: Homo sapiens, HepG2; Table 1, compounds of formula I; NI = no inhibition up to 500 μM; read-out: Hep-G2 (IC50)
Supply the numeric figure in µM, leaving out any unit text.

| compound | result |
| --- | --- |
| CCC1OC(=O)[C@H](C)[C@H](OC2C[C@@](C)(OC)[C@@H](O)[C@H](C)O2)[C@H](C)[C@@H](OC2O[C@H](C)C[C@H](N(C)Cc3cn(Cc4ccc(-n5cc(C)ccc5=O)cc4)nn3)[C@H]2O)[C@@](C)(OC)C[C@@H](C)C(=O)[C@H](C)[C@@H](O)[C@]1(C)O (stereo partly shown) [Compound 10b] | 116 |

Lab book: IC50 of CCC1OC(=O)[C@H](C)[C@H](OC2C[C@@](C)(OC)[C@@H](O)[C@H](C)O2)[C@H](C)[C@@H](OC2O[C@H](C)C[C@H](N(C)Cc3ccc(-c4cn(CCCCc5ccc(-n6cc(C)ccc6=O)cc5)nn4)cc3)[C@H]2O)[C@@](C)(OC)C[C@@H](C)C(=O)[C@H](C)[C@@H](O)[C@]1(C)O (stereo partly shown) [Compound 14c] noted as 36.4

###

The compounds listed here are annotated with their IC50.
# Tested on: A549
# experimentalDetails: Anti-proliferation IC50, A549
# Assay type: cell-based
# experimentalContext: Homo sapiens, Table 2, compounds of formula II, read-out: Anti-proliferation IC50 A549
All answers are understood in µM, so give the number only.

A selection of reference data follows.
| compound | result |
| --- | --- |
| CC[C@@H]1OC(=O)[C@@H](C)[C@H](O)[C@@H](C)[C@H](O[C@H]2O[C@@H](C)C[C@@H](N(C)Cc3ccc(-c4cn(CCNC(=O)CCCC[C@H]5CCSS5)nn4)cc3)[C@@H]2O)C(C)(O)C[C@H](C)CN(C)[C@@H](C)[C@H](O)[C@@]1(C)O (stereo partly shown) | 27.4 |
| CC[C@@H]1OC(=O)[C@@H](C)[C@H](O[C@H]2C[C@@](C)(OC)[C@@H](O)[C@H](C)O2)[C@@H](C)[C@H](O[C@H]2O[C@@H](C)C[C@@H](N(C)Cc3ccc(-c4cn(CCNC(=O)CCCC[C@H]5CCSS5)nn4)cc3)[C@@H]2O)C(C)(O)C[C@H](C)CN(C)[C@@H](C)[C@H](O)[C@@]1(C)O (stereo partly shown) | 10.3 |
| CCCCOC(=O)/C=C/C(=O)O[C@@H]1[C@@H](O[C@H]2[C@H](C)[C@@H](O[C@H]3C[C@@](C)(OC)[C@@H](O)[C@H](C)O3)[C@H](C)C(=O)O[C@@H](CC)[C@](C)(O)[C@@H](O)[C@H](C)N(C)C[C@@H](C)CC2(C)O)O[C@@H](C)C[C@H]1N(C)C (stereo partly shown) | 141 |
| CC[C@H]1OC(=O)[C@H](C)[C@@H](O[C@H]2C[C@@](C)(OC)[C@@H](O)[C@H](C)O2)[C@H](C)[C@@H](O[C@@H]2O[C@H](C)C[C@H](N(C)Cc3cn(CCCCc4ccc(-n5cc(C)ccc5=O)cc4)nn3)[C@H]2O)[C@](C)(O)C[C@@H](C)CN(C)[C@H](C)[C@@H](O)[C@]1(C)O [Compound 15b] | 35.2 |
| CC[C@H]1OC(=O)[C@H](C)[C@@H](O[C@H]2C[C@@](C)(OC)[C@@H](O)[C@H](C)O2)[C@H](C)[C@@H](O[C@@H]2O[C@H](C)C[C@H](N(C)CCCCCC#Cc3ccc(-n4cc(C)ccc4=O)cc3)[C@H]2O)[C@](C)(O)C[C@@H](C)CN(C)[C@H](C)[C@@H](O)[C@]1(C)O [Compound 20e] | 6.1 |

In plain terms, CC[C@@H]1OC(=O)[C@@H](C)[C@H](O[C@H]2C[C@@](C)(OC)[C@@H](O)[C@H](C)O2)[C@@H](C)[C@H](O[C@H]2O[C@@H](C)C[C@@H](N(C)C(=O)/C=C/C(=O)OC)[C@@H]2O)C(C)(O)C[C@H](C)CN(C)[C@@H](C)[C@H](O)[C@@]1(C)O (stereo partly shown) has a documented IC50 of 214

Item: CC[C@@H]1OC(=O)[C@@H](C)[C@H](O)[C@@H](C)[C@H](O[C@@H]2O[C@H](C)C[C@H](N(C)C)[C@H]2OC(=O)CCCC[C@H]2CCSS2)C(C)(O)C[C@H](C)CN(C)[C@@H](C)[C@H](O)[C@@]1(C)O (stereo partly shown) | IC50: 282

Where do the numbers come from? From patent US20240076293A1.
